Record form. Attribute: abundance fitness. Fill in for each entry.
B1: E3 ubiquitin-protein ligase NEDD4-like, residues 539 to 589; numbered along this chain, Q96PU5 (parent)
chain: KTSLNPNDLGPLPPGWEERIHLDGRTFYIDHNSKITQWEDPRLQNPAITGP

variants of: B1; test: abundance fitness (aPCA) (normalised: wild type 0, dead -1); higher = more abundant; growth selection in yeast, the domain comes from the species named; conditions: Homo sapiens
Answers are plain numbers.

Give measured abundance fitness for every item shown.
1. P13K
2. R42F
3. R25Q
4. Q44V
5. P11E
6. R19D

A:
1. -0.559
2. -1.09
3. -0.187
4. -0.114
5. -0.044
6. -0.421

Provide each entry's abundance fitness from the list below.
1. L43H
2. I35M

A:
1: -0.131; 2: -0.239
